Assay system PI3Kα (Homo sapiens); read-out recorded as IC50.
MEASURED_ATTRIBUTE: IC50

{"SMILES_REPR": "C[C@H](Nc1ncnc2[nH]cnc12)c1cc2cccc(Cl)c2c(SCCN2CCCC2)n1", "MEASURED_ON": "PI3Kα (Homo sapiens)", "MEASURED_ATTRIBUTE": "IC50", "MEAS_VALUE": "> 10 µM"}
{"SMILES_REPR": "C[C@H](Nc1ncnc2[nH]cc(F)c12)c1cc2cccc(Cl)c2c(C(=O)N2CCOCC2)n1", "MEASURED_ON": "PI3Kα (Homo sapiens)", "MEASURED_ATTRIBUTE": "IC50", "MEAS_VALUE": "< 10 µM"}
{"SMILES_REPR": "CC(C)N1CCC(Oc2nc([C@H](C)Nc3ncnc4cccnc34)cc3cccc(-c4cnn(C)c4)c23)CC1", "MEASURED_ON": "PI3Kα (Homo sapiens)", "MEASURED_ATTRIBUTE": "IC50", "MEAS_VALUE": "< 10 µM"}
{"SMILES_REPR": "Cc1cccc2cc([C@H](C)Nc3ncnc4cccnc34)nc(C(=O)N3CCOCC3)c12", "MEASURED_ON": "PI3Kα (Homo sapiens)", "MEASURED_ATTRIBUTE": "IC50", "MEAS_VALUE": "< 10 µM"}
{"SMILES_REPR": "C[C@H](Nc1ncnc2[nH]cnc12)c1cc2cccc(Cl)c2c(OCC(=O)N2CCOCC2)n1", "MEASURED_ON": "PI3Kα (Homo sapiens)", "MEASURED_ATTRIBUTE": "IC50", "MEAS_VALUE": "< 10 µM"}
{"SMILES_REPR": "C[C@H](Nc1ccnc2ccnn12)c1cc2cccc(Cl)c2c(N2CCN(C)CC2)n1", "MEASURED_ON": "PI3Kα (Homo sapiens)", "MEASURED_ATTRIBUTE": "IC50", "MEAS_VALUE": "> 10 µM"}
{"SMILES_REPR": "Cc1nc([C@H](C)Nc2ncnc3[nH]cnc23)cc2cccc(C(=O)N3CCOCC3)c12", "MEASURED_ON": "PI3Kα (Homo sapiens)", "MEASURED_ATTRIBUTE": "IC50", "MEAS_VALUE": "> 10 µM"}
{"SMILES_REPR": "C[C@H](Nc1ccnn2ccnc12)c1cc2cccc(Cl)c2c(OC2CCN(S(C)(=O)=O)CC2)n1", "MEASURED_ON": "PI3Kα (Homo sapiens)", "MEASURED_ATTRIBUTE": "IC50", "MEAS_VALUE": "> 10 µM"}
{"SMILES_REPR": "C[C@H](Nc1ncnc2[nH]cnc12)c1cc2cccc(Cl)c2c(C(=O)N(C)C2CCOCC2)n1", "MEASURED_ON": "PI3Kα (Homo sapiens)", "MEASURED_ATTRIBUTE": "IC50", "MEAS_VALUE": "> 10 µM"}
{"SMILES_REPR": "C[C@H](Nc1ncnc2[nH]cnc12)c1cc2c(F)cccc2c(CCN2CCOCC2)n1", "MEASURED_ON": "PI3Kα (Homo sapiens)", "MEASURED_ATTRIBUTE": "IC50", "MEAS_VALUE": "> 10 µM"}
{"SMILES_REPR": "C[C@H](Nc1ncnc2[nH]cc(F)c12)c1cc2cccc(Cl)c2c(C(=O)N2C3CCC2COC3)n1", "MEASURED_ON": "PI3Kα (Homo sapiens)", "MEASURED_ATTRIBUTE": "IC50", "MEAS_VALUE": "< 10 µM"}
{"SMILES_REPR": "C[C@H](Nc1ncnc2[nH]cnc12)c1cc2cccc(-c3cnn(C)c3)c2c(C(=O)N2C3CCC2COC3)n1", "MEASURED_ON": "PI3Kα (Homo sapiens)", "MEASURED_ATTRIBUTE": "IC50", "MEAS_VALUE": "> 10 µM"}
{"SMILES_REPR": "C[C@H](Nc1ncnc2[nH]cnc12)c1cc2cccc(Cl)c2c(CCN2CCOCC2)n1", "MEASURED_ON": "PI3Kα (Homo sapiens)", "MEASURED_ATTRIBUTE": "IC50", "MEAS_VALUE": "< 10 µM"}
{"SMILES_REPR": "C[C@H](Nc1ncnc2scnc12)c1cc2cccc(Cl)c2c(C(=O)N2CCOC[C@@H]2C)n1", "MEASURED_ON": "PI3Kα (Homo sapiens)", "MEASURED_ATTRIBUTE": "IC50", "MEAS_VALUE": "< 10 µM"}
{"SMILES_REPR": "C[C@H](Nc1ncnc2[nH]cnc12)c1cc2cccc(Cl)c2c(S(=O)(=O)CCN2CCOCC2)n1", "MEASURED_ON": "PI3Kα (Homo sapiens)", "MEASURED_ATTRIBUTE": "IC50", "MEAS_VALUE": "> 10 µM"}
{"SMILES_REPR": "C[C@H](Nc1nc(N)ncc1C(F)(F)F)c1cc2cccc(Cl)c2c(CCN2CCOCC2)n1", "MEASURED_ON": "PI3Kα (Homo sapiens)", "MEASURED_ATTRIBUTE": "IC50", "MEAS_VALUE": "> 10 µM"}
{"SMILES_REPR": "C[C@H](Nc1ncnc2[nH]cnc12)c1cc2cccc(Cl)c2c(CN2CCC2)n1", "MEASURED_ON": "PI3Kα (Homo sapiens)", "MEASURED_ATTRIBUTE": "IC50", "MEAS_VALUE": "> 10 µM"}
{"SMILES_REPR": "C[C@H](Nc1ncnc2scnc12)c1cc2cccc(Cl)c2c(C(=O)N2CCCCC2)n1", "MEASURED_ON": "PI3Kα (Homo sapiens)", "MEASURED_ATTRIBUTE": "IC50", "MEAS_VALUE": "< 10 µM"}
{"SMILES_REPR": "C[C@H](Nc1ncnc2[nH]cnc12)c1cc2cccc(Cl)c2c(C(=O)Nc2ccccc2)n1", "MEASURED_ON": "PI3Kα (Homo sapiens)", "MEASURED_ATTRIBUTE": "IC50", "MEAS_VALUE": "> 10 µM"}
{"SMILES_REPR": "C[C@H](Nc1ncnc2cccnc12)c1cc2cccc(-c3cnn(C)c3)c2c(CCN2CCOCC2)n1", "MEASURED_ON": "PI3Kα (Homo sapiens)", "MEASURED_ATTRIBUTE": "IC50", "MEAS_VALUE": "< 10 µM"}
{"SMILES_REPR": "Cc1cccc2cc([C@H](C)Nc3ncnc4cccnc34)nc(C(=O)N3C4CCC3COC4)c12", "MEASURED_ON": "PI3Kα (Homo sapiens)", "MEASURED_ATTRIBUTE": "IC50", "MEAS_VALUE": "< 10 µM"}
{"SMILES_REPR": "CNC(=O)COc1nc([C@H](C)Nc2ncnc3[nH]cnc23)cc2cccc(Cl)c12", "MEASURED_ON": "PI3Kα (Homo sapiens)", "MEASURED_ATTRIBUTE": "IC50", "MEAS_VALUE": "< 10 µM"}
{"SMILES_REPR": "C[C@H](Nc1ncnc2scnc12)c1cc2cccc(Cl)c2c(C(=O)NCC2CCOCC2)n1", "MEASURED_ON": "PI3Kα (Homo sapiens)", "MEASURED_ATTRIBUTE": "IC50", "MEAS_VALUE": "> 10 µM"}
{"SMILES_REPR": "C[C@H](Nc1ncnc2[nH]cnc12)c1cc2cccc(Cl)c2c(C(=O)N2CC3CCC(C2)O3)n1", "MEASURED_ON": "PI3Kα (Homo sapiens)", "MEASURED_ATTRIBUTE": "IC50", "MEAS_VALUE": "> 10 µM"}
{"SMILES_REPR": "C[C@H](Nc1ncnc2scnc12)c1cc2cccc(Cl)c2c(CCN2CCOCC2)n1", "MEASURED_ON": "PI3Kα (Homo sapiens)", "MEASURED_ATTRIBUTE": "IC50", "MEAS_VALUE": "< 10 µM"}
{"SMILES_REPR": "C[C@H](Nc1ncnc2cccnc12)c1cc2cccc(-c3cnn(C)c3)c2c(OCCN2CCCC2)n1", "MEASURED_ON": "PI3Kα (Homo sapiens)", "MEASURED_ATTRIBUTE": "IC50", "MEAS_VALUE": "< 10 µM"}
{"SMILES_REPR": "Cc1cccc2cc([C@H](C)Nc3ncnc4[nH]cnc34)nc(CCN3CCOCC3)c12", "MEASURED_ON": "PI3Kα (Homo sapiens)", "MEASURED_ATTRIBUTE": "IC50", "MEAS_VALUE": "> 10 µM"}
{"SMILES_REPR": "C[C@H](Nc1ncnc2cccnc12)c1cc2cccc(Cl)c2c(CCN2CCOCC2)n1", "MEASURED_ON": "PI3Kα (Homo sapiens)", "MEASURED_ATTRIBUTE": "IC50", "MEAS_VALUE": "< 1 µM"}
{"SMILES_REPR": "C[C@H](Nc1ncnc2[nH]cnc12)c1cc2cccc(Cl)c2c(OCC(=O)N2CCCC2)n1", "MEASURED_ON": "PI3Kα (Homo sapiens)", "MEASURED_ATTRIBUTE": "IC50", "MEAS_VALUE": "> 10 µM"}
{"SMILES_REPR": "COCCN(C)C(=O)c1nc([C@H](C)Nc2ncnc3cccnc23)cc2cccc(Cl)c12", "MEASURED_ON": "PI3Kα (Homo sapiens)", "MEASURED_ATTRIBUTE": "IC50", "MEAS_VALUE": "> 10 µM"}
{"SMILES_REPR": "Cc1nc([C@H](C)Nc2ncnc3[nH]cnc23)cc2cccc(-c3cccnc3)c12", "MEASURED_ON": "PI3Kα (Homo sapiens)", "MEASURED_ATTRIBUTE": "IC50", "MEAS_VALUE": "> 10 µM"}

Data origin, for the record: patent US8901133B2
